systemUnderTest: GST-Bcl-2 (Homo sapiens)
Sequence (P10415 whole entry): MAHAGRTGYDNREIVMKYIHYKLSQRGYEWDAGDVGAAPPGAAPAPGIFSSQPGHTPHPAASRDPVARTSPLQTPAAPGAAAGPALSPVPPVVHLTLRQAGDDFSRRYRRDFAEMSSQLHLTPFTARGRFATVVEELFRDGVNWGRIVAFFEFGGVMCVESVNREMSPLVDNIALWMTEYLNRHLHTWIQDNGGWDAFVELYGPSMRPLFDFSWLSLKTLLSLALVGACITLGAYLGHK
assayProtocol: TR-FRET binding assay, GST-Bcl-2 with F-Bak peptide probe
conditionDetails: TR-FRET Binding Affinity
assayReadout: pKi
The read-out pKi is expressed as -log10 of concentration in moles per litre.

Qu. Fill blank: measured pKi of the compound CC1(C)CCC(CN2CCN(c3ccc(C(=O)NS(=O)(=O)c4ccc(NC[C@H]5CN(C6COC6)CCO5)c([N+](=O)[O-])c4)c(Oc4cccc5[nH]cnc45)c3)CC2)=C(c2ccc(Cl)cc2)C1 [Example 541] is ____.
Ans. 9.78

Qu. Next up: CC1(C)CCC(CN2CCN(c3ccc(C(=O)NS(=O)(=O)c4cnc(NC5CCN(C6CC6)CC5)c(Cl)c4)c(Oc4cccc5[nH]ncc45)c3)CC2)=C(c2ccc(Cl)cc2)C1 [Example 448]
Ans. 11.30

Qu. Next up: CC1(C)CCC(CN2CCN(c3ccc(C(=O)NS(=O)(=O)c4ccc(OCC5(F)CCOCC5)c(C(F)(F)F)c4)c(Oc4cccc5[nH]ncc45)c3)CC2)=C(c2ccc(Cl)cc2)C1 [Example 497]
Ans. 10.09

Qu. Next up: COCCOCCN1CCO[C@H](CNc2ccc(S(=O)(=O)NC(=O)c3ccc(N4CCN(CC5=C(c6ccc(Cl)cc6)CC(C)(C)CC5)CC4)cc3Oc3cccc4[nH]cnc34)cc2[N+](=O)[O-])C1 [Example 455]
Ans. 11.40
